EXPERIMENT DESCRIPTION: A2780 cell killing – plate reader, dry powder samples, cytotoxicity control, dose response (AID 743046);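 further: 0% = neutral control wells and -100% = cytotoxic reference compound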
CONDITION INFO: A2780 ovarian cancer cytotoxicity; series mostly up to 35 µM
Results with a measured potency or affinity are listed apart. Activity calls are given as the source filed them. How the calls were made is not given here.

SMILES REPRESENTATION: O=C(Cc1ccccn1)N1CCCCN2[C@@H](CO)[C@@H](c3ccc(-c4ccc(F)cc4)cc3)[C@@H]2C1
activity change, negative = cytotoxicity: inactive

SMILES REPRESENTATION: COc1ccc(-c2ccc([C@@H]3[C@@H](CO)N4CCCCN(C(=O)Cc5ccccc5)C[C@H]34)cc2)cc1
activity change, negative = cytotoxicity: inactive

SMILES REPRESENTATION: O=C(Cc1ccccn1)N1CCCCN2[C@@H](CO)[C@@H](c3ccc(-c4ccccc4F)cc3)[C@@H]2C1
activity change, negative = cytotoxicity: inactive

SMILES REPRESENTATION: Cc1ccc(OC(=O)N(C)C[C@@H]2OCc3ccccc3-c3c(n(C)c4ccccc34)C(=O)N([C@@H](C)CO)C[C@H]2C)cc1
activity change, negative = cytotoxicity: -16.8% [at 8 µM] (inactive)

* * *

Provide the reported z-score of each item.
EXPERIMENT DESCRIPTION: viability profiling in MM1S myeloma cells – cell-based, resazurin fluorescence, basal, 24 h, PK04 Diversity Set, profiling panel (AID 1174);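 further: MM1S multiple myeloma cell line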
CONDITION INFO: higher = more signal, called active from +8 up or from −8 down unless noted
Please state the value as a number alone, without comment.

Measured z-score, COC(=O)[C@@]1(Cc2ccccc2)[C@H]2c3cc(C(=O)N(C)C)n(C)c3C[C@H]2CN1C(=O)c1ccccc1 : -0.923

Measured z-score, CN1CCC(c2ccc(CO)cc2)=CC1C1CC1 (stereo not given) : -0.55

Measured z-score, C[C@H]1O[C@H]2C3=C(C(=O)[C@@H]4O[C@@H]4[C@@H]3O)[C@@H]1[C@@H]1[C@@H](C)OC=C3[C@@H](O)[C@H]4O[C@H]4C(=O)[C@]312 : -1.92

Measured z-score, CCc1cc2c(nc1CC)CCN(CCC(C)=NOC)C2 : 0.0324

Measured z-score, c1ccc(-c2cc3c(nc2-c2ccccc2)CCNC3)cc1 : 0.526

* * *

EXPERIMENT DESCRIPTION: probe aNOTCH3 binding on compound microarray – biochemical, small-molecule microarray, 635/667 nm fluorescence, primary screen (AID 1120);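 further: probe is a biotin-tagged antibody raised against NOTCH3 rather than NOTCH3 protein; score merges spot fluorescence near 667 nm with spot signal to noise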
CONDITION INFO: higher = more signal; small-molecule microarray, probe aNOTCH3, fluorescence unless noted
Decide by composite z-score: equal to or exceeding 0.1 means met, less means not met.

Check this molecule for composite z-score at or above 0.1: COc1cc2c(cc1O)C(C)N(C)CC2 (configuration not stated) not met

Check this molecule for composite z-score at or above 0.1: CCCc1cc2c(n1CCO)C(C)C1CN(C(=O)c3ccccc3)C(C)(C(=O)OC)C21 (configuration not stated) met

Check this molecule for composite z-score at or above 0.1: CCc1cc2c(nc1CC)CCN(CCC(C)=NOC)C2 met

Check this molecule for composite z-score at or above 0.1: CN1CCc2nc(CO)c(CO)cc2C1 met

Check this molecule for composite z-score at or above 0.1: CCCC=C(CCC)[C@@H](NP(=O)(c1ccccc1)c1ccccc1)c1ccccc1 not met

Check this molecule for composite z-score at or above 0.1: CCCc1cc2c(n1Cc1ccc(C)cc1)C(C)C1CN(C(=O)c3ccccc3)C(C)(C(=O)OC)C21 (configuration not stated) met

Check this molecule for composite z-score at or above 0.1: C[C@H]1O[C@H]2C3=C(C(=O)[C@@H]4O[C@@H]4[C@@H]3O)[C@@H]1[C@@H]1[C@@H](C)OC=C3[C@@H](O)[C@H]4O[C@H]4C(=O)[C@]312 not met

Check this molecule for composite z-score at or above 0.1: CN1CCC(c2ccc(CO)cc2)=CC1C1CC1 (configuration not stated) not met

Check this molecule for composite z-score at or above 0.1: C=C(CC1(C(C)NP(=O)(c2ccccc2)c2ccccc2)CC1)c1ccccc1 (configuration not stated) met

Check this molecule for composite z-score at or above 0.1: COC(=O)[C@@]1(Cc2ccccc2)[C@H]2c3cc(C(=O)N(C)C)n(C)c3C[C@H]2CN1C(=O)c1ccccc1 met

* * *

EXPERIMENT DESCRIPTION: blockers of DNA damage checkpoint Chk1 activation – imaging, HeLa, hydroxyurea, phospho-Chk1 antibody, percent positive cells, primary screen (AID 1186)
CONDITION INFO: hydroxyurea-induced phospho-Chk1 immunofluorescence imaging, higher = more signal
The source made the active and inactive calls. No rule for the calls is given here.
MEASURED PROPERTY: z-score

Measured z-score, COC(=O)[C@@]1(Cc2ccc(F)cc2)[C@H]2c3cc(C(=O)N(C)C)[nH]c3C[C@H]2CN1C(=O)c1ccccc1 : 1.11 (inactive)

Measured z-score, CCOC(=O)[C@H]1CC=C2C(=O)Oc3ccccc3[C@@H]21 : 0.466 (inactive)

Measured z-score, CCOC(=O)[C@H]1CC=C2C(=O)Oc3ccc(Br)cc3[C@@H]21 : 0.439 (inactive)

Measured z-score, CCCc1cc2c(n1Cc1ccco1)C(C)C1CN(C(=O)c3ccccc3)C(C)(C(=O)OC)C21 (stereo not given) : 0.586 (inactive)

Measured z-score, OCc1ccc(C2=CC(c3cccs3)N(Cc3cccc(OC(F)(F)F)c3)CC2)cc1 (stereo not given) : -0.308 (inactive)

* * *

EXPERIMENT DESCRIPTION: binders from COS7 lysate, DM2A8 probe, primary screen, torsin A project, cell lysate, small-molecule microarray, fluorescence 635/667 (AID 1065)
CONDITION INFO: higher = more signal; small-molecule microarray, COS7 cell lysate, probe DM2A8, fluorescence, COS7 lysate expressing mutant human TOR1A unless noted
MEASURED PROPERTY: composite z-score

Measured composite z-score, CN1CCC(c2ccc(CO)cc2)=CC1c1cccs1 (stereo not drawn) : -0.191

Measured composite z-score, O=P(c1ccccc1)(c1ccccc1)N1CC2(CC2)CC(O)(c2ccccc2)C1 (stereo not drawn) : -0.86

Measured composite z-score, OCc1ccc(C2=CC(C3CC3)N(Cc3sc4ccccc4c3Cl)CC2)cc1 (stereo not drawn) : 1.02

* * *

Provide the reported composite z-score of each item.
ASSAY SYSTEM: Calmodulin-1 (Homo sapiens) (UniProt P0DP23)
EXPERIMENT DESCRIPTION: small molecules binding calmodulin-1 with EGTA – biochemical, small-molecule microarray, Cy5-labelled CALM1, profiling panel (AID 1111);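 further: labelled calmodulin applied in Tris saline Tween buffer holding calcium plus EGTA and DTT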
CONDITION INFO: Cy5-CALM1 binding fluorescence, higher = more signal
Please state the value as a number alone, without comment.

Measured composite z-score, COC(=O)NCC=Cc1nc(CCC=CC(=O)O[C@H]2CC3CC(=O)O[C@@H](C=CCC(C)C)C[C@@H]4CC[C@H](C)[C@@H](C[C@@H](OC)C[C@H](C2)O3)O4)co1 : -0.421

Measured composite z-score, COC(=O)[C@H]1C(=O)c2ccccc2O[C@@](C(=O)OC)(c2ccccc2)[C@@H]1c1ccccc1 : -0.558

Measured composite z-score, COC(=O)[C@H]1[C@H](c2ccccc2)C(=O)[C@]2(O)c3ccccc3O[C@@]12c1ccccc1 : 0.384

Measured composite z-score, C=C(CC1(C(C)NP(=O)(c2ccccc2)c2ccccc2)CC1)c1ccccc1 (stereo unspecified) : 0.962

Measured composite z-score, OCc1ccc(C2=CC(c3cccs3)N(Cc3cccc(OC(F)(F)F)c3)CC2)cc1 (stereo unspecified) : -0.573

Measured composite z-score, C[C@@H]1OC=C2[C@@H](O)[C@H]3O[C@H]3C(=O)[C@]23[C@H]1[C@H]1C2=C([C@@H](O)[C@H]4O[C@H]4C2=O)[C@@H]3O[C@@H]1C : -1.11

Measured composite z-score, OCc1ccc(C2=CC(C3CC3)N(Cc3sc4ccccc4c3Cl)CC2)cc1 (stereo unspecified) : 0.0976

Measured composite z-score, COc1cc2c(cc1O)C=[N+](C)CC2 : -0.683

Measured composite z-score, CN1CCc2nc(CO)c(CO)cc2C1 : -0.192

Measured composite z-score, CCCC=C(CCC)[C@@H](NP(=O)(c1ccccc1)c1ccccc1)c1ccccc1 : 1.94

Measured composite z-score, CCCC[C@@H]1C[C@H]1[C@@H](NP(=O)(c1ccccc1)c1ccccc1)c1ccc(Cl)cc1 : 1.14

Measured composite z-score, CCOC(=O)[C@H]1CC=C2C(=O)Oc3ccccc3[C@@H]21 : -0.229

Measured composite z-score, CCOC(=O)[C@H]1CC=C2C(=O)Oc3ccc(Br)cc3[C@@H]21 : 1.27

Measured composite z-score, C[C@H]1O[C@H]2C3=C(C(=O)[C@@H]4O[C@@H]4[C@@H]3O)[C@@H]1[C@@H]1[C@@H](C)OC=C3[C@@H](O)[C@H]4O[C@H]4C(=O)[C@]312 : -0.806

Measured composite z-score, CN1CCC(c2ccc(CO)cc2)=CC1c1cccs1 (stereo unspecified) : -0.0348

Measured composite z-score, COC(=O)[C@@]1(Cc2ccccc2)[C@H]2c3cc(C(=O)N(C)C)n(C)c3C[C@H]2CN1C(=O)c1ccccc1 : 1.96
